Molecular target: Carnitine O-palmitoyltransferase 1, liver isoform (Rattus norvegicus, UniProt P32198)
Sequence (P32198 whole entry, canonical isoform): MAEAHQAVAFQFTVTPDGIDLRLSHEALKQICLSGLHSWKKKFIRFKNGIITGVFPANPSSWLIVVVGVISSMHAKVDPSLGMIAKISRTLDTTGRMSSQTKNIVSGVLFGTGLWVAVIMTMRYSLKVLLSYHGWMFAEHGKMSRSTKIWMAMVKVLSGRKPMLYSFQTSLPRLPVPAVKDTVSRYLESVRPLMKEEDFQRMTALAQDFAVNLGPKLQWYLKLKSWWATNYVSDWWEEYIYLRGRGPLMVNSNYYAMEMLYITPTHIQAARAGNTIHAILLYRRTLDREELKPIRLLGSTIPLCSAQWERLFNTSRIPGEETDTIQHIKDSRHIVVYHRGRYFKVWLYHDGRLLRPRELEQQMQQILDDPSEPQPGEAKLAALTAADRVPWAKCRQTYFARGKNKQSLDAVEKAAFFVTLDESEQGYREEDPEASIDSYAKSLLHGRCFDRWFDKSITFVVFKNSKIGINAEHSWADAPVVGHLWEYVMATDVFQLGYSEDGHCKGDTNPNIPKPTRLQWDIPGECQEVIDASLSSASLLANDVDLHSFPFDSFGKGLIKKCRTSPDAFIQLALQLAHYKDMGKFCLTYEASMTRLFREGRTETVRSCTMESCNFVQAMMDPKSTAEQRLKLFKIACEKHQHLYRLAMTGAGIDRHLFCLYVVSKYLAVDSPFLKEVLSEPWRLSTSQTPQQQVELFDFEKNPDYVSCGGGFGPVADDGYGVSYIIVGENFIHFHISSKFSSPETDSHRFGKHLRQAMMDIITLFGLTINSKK
Test: SUPPLEMENTARY: Inhibition of Carnitine palmitoyltransferase 1, liver isoform
pIC50: −log10 of the molar value.
Label satisfied when pIC50 >= 7; otherwise not satisfied.

[
  {
    "MOLECULE": "O=C(COc1ccccc1)NS(=O)(=O)Cc1ccc(-c2nc([C@H]3CCCCN3C(=O)COc3ccccc3)cs2)cc1",
    "CLASS_ASSIGNMENT": "not satisfied"
  },
  {
    "MOLECULE": "O=C(c1nc([C@H]2CCCCN2C(=O)COc2ccccc2)no1)N1CCC(c2ccncc2)C1 (stereo partly drawn)",
    "CLASS_ASSIGNMENT": "not satisfied"
  },
  {
    "MOLECULE": "O=C(COc1ccccc1)N1CCCC[C@@H]1c1noc(-c2cccc(-n3cn[nH]c3=O)c2)n1",
    "CLASS_ASSIGNMENT": "not satisfied"
  },
  {
    "MOLECULE": "O=C(O)Cc1csc(NC(=O)c2ccc3c(c2)N(S(=O)(=O)c2cccc(Cl)c2)CC3)n1",
    "CLASS_ASSIGNMENT": "satisfied"
  },
  {
    "MOLECULE": "O=C(COc1ccccc1)N1CCCC[C@@H]1c1noc(-c2ccc(C(F)(F)F)nc2)n1",
    "CLASS_ASSIGNMENT": "not satisfied"
  },
  {
    "MOLECULE": "O=C1Nc2ccc(-c3n[nH]c([C@H]4CCCCN4C(=O)COc4ccccc4)n3)cc2CO1",
    "CLASS_ASSIGNMENT": "not satisfied"
  },
  {
    "MOLECULE": "O=C([C@H]1CCCCN1C(=O)COc1ccccc1)N1CCc2c(Cl)cccc2C1",
    "CLASS_ASSIGNMENT": "not satisfied"
  },
  {
    "MOLECULE": "COc1ccc(Cl)cc1S(=O)(=O)c1cn(C)c2ccc(C(=O)Nc3ccc(C(=O)O)cc3)cc12",
    "CLASS_ASSIGNMENT": "satisfied"
  },
  {
    "MOLECULE": "CCOC(=O)C1CN(S(=O)(=O)c2cc(Cl)ccc2OC)c2cc(C(=O)Nc3cccc(F)c3)ccc2O1 (stereo not drawn)",
    "CLASS_ASSIGNMENT": "not satisfied"
  },
  {
    "MOLECULE": "COc1ccc(Cl)cc1S(=O)(=O)c1c[nH]c2ccc(C(=O)Nc3ccc(CC(=O)O)cc3)cc12",
    "CLASS_ASSIGNMENT": "satisfied"
  }
]

The reported numbers originate from ChEMBL document CHEMBL3431459.
